Ki values for Beta-secretase 1 (Homo sapiens), compiled from several publications.
attribute measured: Ki (nM)

Below are worked cases with known answers.
C[C@@]1(c2cc(NC(=O)c3ccc(Cl)cc3)ccc2F)CC[C@@](F)(CF)C(N)=N1: 140
Cc1cc(C#N)cnc1C(=O)Nc1ccc(F)c([C@]2(C)CS(=O)(=O)C3(CN(C)C3)C(=N)N2)c1: 1.3
CC1(C)C(=N)N[C@@]2(CCCc3ccc(NC(=O)c4cnsn4)cc32)CS1(=O)=O: 35
CN1C(=N)N[C@](C)(c2cc(NC(=S)c3ccc(F)cn3)cc(F)c2F)CS1(=O)=O: 17
C[C@]1(F)C[C@H](F)[C@@](C)(c2cc(NC(=O)c3ccc(Br)cn3)ccc2F)N=C1N: 4.3
C[C@@]1(F)CC(F)(F)[C@@](C)(c2cc(NC(=O)c3ccc(F)cn3)ccc2F)N=C1N: 210

[P] COc1cc(C#N)cc(-c2cc(Cl)c([C@]3(C)CS(=O)(=O)C4(CCOCC4)C(=N)N3)s2)c1
[Q] CN1C(=N)N[C@](C)(c2sc(-c3cc(-c4nnco4)ncc3F)cc2F)CS1(=O)=O
Quick check, higher Ki between P and Q ? Output the label that corresponds to your choice.
P

[P] CC1(C)C(=N)N[C@@]2(CCOc3ccc(NC(=O)c4cnc(C(F)(F)F)cn4)cc32)CS1(=O)=O
[Q] CN1C(=N)N[C@](C)(c2sc(-c3cc(-c4nnco4)ncc3F)cc2Cl)CS1(=O)=O
[R] COc1nc(N2C[C@H]3C(=O)N(C)C(=N)N[C@@]3(c3ccc(F)cc3F)C2)nc(C2CC2)c1F
Your job: order these 3 records by Ki, ascending. Hello, could you send the labels back in the order asked? Thank you.
R, P, Q
